Reported T/C is given for each of the following molecules.
Tested on: BDF1 mice, P388 leukemia ip, median survival T/C
Experiment: NCI In Vivo Anticancer Drug Screen. Data for tumor model P388 Leukemia (intraperitoneal) in B6D2F1 (BDF1) mice
Details: endpoint: median survival time; dose: 12.5 mg/kg/injection; schedule: Q01DX009 (ip); vehicle: saline; higher = longer survival
Toxic doses and inconclusive results are not listed.

Some solved entries appear below for comparison.
{"structure_smiles": "CC[N+](CC)(CC)CC", "assay_target": "BDF1 mice, P388 leukemia ip, median survival T/C", "T/C": "107 % of control"}
{"structure_smiles": "O=NN(CCCl)C(=O)Nc1ccc(CCO)cc1", "assay_target": "BDF1 mice, P388 leukemia ip, median survival T/C", "T/C": "100 % of control"}
{"structure_smiles": "CCCCCCCCCCCCCCCCP(=O)(OCCOCCCCCC)OCCOCCCCCC", "assay_target": "BDF1 mice, P388 leukemia ip, median survival T/C", "T/C": "87 % of control"}
{"structure_smiles": "CCCCCCCCCCCC[N+](C)(C)CCC[N+](C)(C)CCCCCCCCCCCC", "assay_target": "BDF1 mice, P388 leukemia ip, median survival T/C", "T/C": "116 % of control"}
{"structure_smiles": "Cc1ccnc(=O)[nH]1", "assay_target": "BDF1 mice, P388 leukemia ip, median survival T/C", "T/C": "99 % of control"}

Please examine the following record next.
# T/C of `CN/N=C/c1cccnc1` = 97 % of control

Source of measurements: PubChem BioAssay AID328
